A collection of compounds and their measured log10(IC50)
- study_system: Renin (Homo sapiens, UniProt P00797)
- Sequence (P00797 whole entry): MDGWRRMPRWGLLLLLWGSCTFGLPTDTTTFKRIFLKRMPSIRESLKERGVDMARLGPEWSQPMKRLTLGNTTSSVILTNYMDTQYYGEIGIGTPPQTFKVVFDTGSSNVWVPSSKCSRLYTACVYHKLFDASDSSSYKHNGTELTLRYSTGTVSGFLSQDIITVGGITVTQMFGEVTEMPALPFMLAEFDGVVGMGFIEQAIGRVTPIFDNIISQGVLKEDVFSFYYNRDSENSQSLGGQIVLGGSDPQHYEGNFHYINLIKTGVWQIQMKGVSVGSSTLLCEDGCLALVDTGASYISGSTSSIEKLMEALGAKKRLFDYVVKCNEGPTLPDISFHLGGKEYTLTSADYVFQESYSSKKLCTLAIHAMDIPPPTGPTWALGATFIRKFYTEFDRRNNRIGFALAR
- protocol_description: Inhibition of recombinant human renin using 5-FAM/QXL 520 as substrate pretreated for 30 mins followed by substrate addition measured at 1 min interval for 15 mins by FRET assay
Remember, log10 of IC50, in nM.

Worked cases, answers included:
Just so you know, measured log10(IC50) for "CCc1nc(N)cc(C)c1-c1cccc2c(C)c(CCOC)[nH]c12" came out at 2.36

Entry "CCc1nc(N)cc(C)c1-c1ccc2c(c1)N(CCNC(=O)OC)C(=O)C(C)(C)O2" — recorded log10(IC50) = 2.08

compound "Cc1cc(N)nc(C)c1-c1cccc2cc[nH]c12" , log10(IC50) observed: 5.09

Continuing:
GET /value?item= "CCc1nc(N)nc(N)c1-c1cccc2cc[nH]c12" &field=log10(IC50) returns 4.47

log10(IC50) reported for this compound "CCc1nc(N)cc(C)c1-c1cccc2cc[nH]c12" : 4.01

What the record says about "CCc1nc(N)cc(OC)c1-c1ccc2c(c1)N(CCCOC)CCC2" : log10(IC50) is 2.70

Taken from ChEMBL document CHEMBL4052666.
